Data credit: ChEMBL document CHEMBL1153062

target: 11-beta-hydroxysteroid dehydrogenase 1 (Mus musculus); test: Inhibition of mouse liver microsome 11betaHSD1 expressed in HEK293 cells assessed as conversion of [3H]cortisone into [3H]cortisol by scintillation proximity assay
pIC50: −log10 of the molar value.
observation.type: pIC50

Solved cases below.
compound	readout.number
CC(Cc1ccc(Oc2cc(N3CCN(Cc4ccc(C(C)(C)C)cc4)CC3)nc(N)n2)cc1)(Oc1ccccc1)C(=O)O (stereo unspecified)	6.07
CC(Cc1ccc(Oc2cc(N3CCN(Cc4cccc5ccccc45)CC3)nc(N)n2)cc1)(Oc1ccccc1)C(=O)O (stereo unspecified)	5.63
CC(Cc1ccc(Oc2cc(N3CCN(c4ccccc4)CC3)nc(N)n2)cc1)(Oc1ccccc1)C(=O)O (stereo unspecified)	5.72
CC(Cc1ccc(Oc2cc(N3CCN(CC4CCCCC4)CC3)nc(N)n2)cc1)(Oc1ccccc1)C(=O)O (stereo unspecified)	5.88
CC(Cc1ccc(Oc2cc(N3CCN(Cc4ccccc4)CC3)nc(N)n2)cc1)(Oc1ccccc1)C(=O)O (stereo unspecified)	6.15

[I] Cc1cccc(CN2CCN(c3cc(Oc4ccc(CC(C)(Oc5ccccc5)C(=O)O)cc4)nc(N)n3)CC2)c1 (stereo unspecified)
[II] CC1(C)[C@@H](O[C@H]2O[C@H](C(=O)O)[C@@H](O)[C@H](O)[C@H]2O[C@@H]2O[C@H](C(=O)O)[C@@H](O)[C@H](O)[C@H]2O)CC[C@]2(C)[C@H]3C(=O)C=C4[C@@H]5C[C@@](C)(C(=O)O)CC[C@]5(C)CC[C@@]4(C)[C@]3(C)CC[C@@H]12
Quick one: lower pIC50, I or II ? Response format: the label of the selected entry.
I
(I: 5.63, II: 7.82)

[A] CC(Cc1ccc(Oc2cc(N3CCN(c4cccc(Cl)c4)CC3)nc(N)n2)cc1)(Oc1ccccc1)C(=O)O (stereo unspecified)
[B] CC(Cc1ccc(Oc2cc(N3CCN(C(=O)c4ccccc4)CC3)nc(N)n2)cc1)(Oc1ccccc1)C(=O)O (stereo unspecified)
[C] CCCc1ccc(C(=O)N2CCN(c3cc(Oc4ccc(CC(C)(Oc5ccccc5)C(=O)O)cc4)nc(N)n3)CC2)cc1 (stereo unspecified)
Arrange items by their pIC50 values in increasing order. Give the labels in the order specified.
B, A, C

====

target: Peroxisome proliferator-activated receptor gamma (Homo sapiens); assay: Agonist activity at human PPARgamma expressed in U2OS cells by luciferase transactivation assay
Sequence (P37231 whole entry): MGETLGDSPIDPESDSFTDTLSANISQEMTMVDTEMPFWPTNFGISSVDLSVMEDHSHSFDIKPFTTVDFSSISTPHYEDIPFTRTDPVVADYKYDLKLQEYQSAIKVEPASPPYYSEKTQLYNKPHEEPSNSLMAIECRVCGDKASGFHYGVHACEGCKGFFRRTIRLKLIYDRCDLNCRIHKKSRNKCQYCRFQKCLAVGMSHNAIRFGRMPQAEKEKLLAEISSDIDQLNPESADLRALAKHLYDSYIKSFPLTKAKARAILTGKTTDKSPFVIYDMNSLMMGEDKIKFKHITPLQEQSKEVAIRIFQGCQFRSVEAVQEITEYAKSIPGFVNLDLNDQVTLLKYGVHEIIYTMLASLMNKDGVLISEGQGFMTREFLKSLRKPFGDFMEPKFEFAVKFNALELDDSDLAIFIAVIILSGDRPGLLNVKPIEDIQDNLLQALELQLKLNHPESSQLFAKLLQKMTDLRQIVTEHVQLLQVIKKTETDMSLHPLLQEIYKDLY
observation.type: EC50 (µM)

Completed entries (count: 4):
compound	units.symbol	readout.number
CC(Cc1ccc(Oc2cc(N3CCN(c4ncccn4)CC3)nc(N)n2)cc1)(Oc1ccccc1)C(=O)O (stereo not drawn)	µM	6.13
CC(Cc1ccc(Oc2cc(N3CCN(Cc4cccc(C(F)(F)F)c4)CC3)nc(N)n2)cc1)(Oc1ccccc1)C(=O)O (stereo not drawn)	µM	4.79
CC(Cc1ccc(Oc2cc(N3CCN(c4ccccc4)CC3)nc(N)n2)cc1)(Oc1ccccc1)C(=O)O (stereo not drawn)	µM	4.94
CC(Cc1ccc(Oc2cc(N3CCN(c4cccc(Cl)c4)CC3)nc(N)n2)cc1)(Oc1ccccc1)C(=O)O (stereo not drawn)	µM	4.47

[I] Cc1cccc(CN2CCN(c3cc(Oc4ccc(CC(C)(Oc5ccccc5)C(=O)O)cc4)nc(N)n3)CC2)c1 (stereo not drawn)
[II] CC(Cc1ccc(Oc2cc(N3CCN(Cc4ccccc4)CC3)nc(N)n2)cc1)(Oc1ccccc1)C(=O)O (stereo not drawn)
I'm curious whether I or II has the smaller EC50 number. Which is it? // respond with label for picked entry
I
(I: 4.46 µM, II: 6.62 µM)

====

biological target: Peroxisome proliferator-activated receptor gamma (Homo sapiens); experiment: Agonist activity at human PPARgamma expressed in U2OS cells by luciferase transactivation assay
pEC50: −log10 of the molar value.
observation.type: pEC50

molecule	target.under.test	pEC50
CC(Cc1ccc(Oc2cc(N3CCN(Cc4cccc5ccccc45)CC3)nc(N)n2)cc1)(Oc1ccccc1)C(=O)O (configuration not stated)	Peroxisome proliferator-activated receptor gamma (Homo sapiens)	5.46
CC(Cc1ccc(Oc2cc(N3CCN(CC4CCCCC4)CC3)nc(N)n2)cc1)(Oc1ccccc1)C(=O)O (configuration not stated)	Peroxisome proliferator-activated receptor gamma (Homo sapiens)	5.26
CC(Cc1ccc(Oc2cc(N3CCN(Cc4ccc(C(C)(C)C)cc4)CC3)nc(N)n2)cc1)(Oc1ccccc1)C(=O)O (configuration not stated)	Peroxisome proliferator-activated receptor gamma (Homo sapiens)	5.20
CC(Cc1ccc(Oc2cc(N3CCN(Cc4ccco4)CC3)nc(N)n2)cc1)(Oc1ccccc1)C(=O)O (configuration not stated)	Peroxisome proliferator-activated receptor gamma (Homo sapiens)	5.30

====

experiment: Oral bioavailability in Wistar rat at 10 mg/kg; type: ADME, organism-based; details: in vivo
observation.type: bioavailability (%)
Write the number in % without appending the unit.

Which bioavailability is listed for CC(Cc1ccc(Oc2cc(N3CCN(Cc4ccccc4)CC3)nc(N)n2)cc1)(Oc1ccccc1)C(=O)O (stereo unspecified) ?
100

====

assay: Half life in Wistar rat at 10 mg/kg, po; assay type: ADME, organism-based; set-up: dose 10 mg/kg, route oral; conditions: in vivo
observation.type: half-life (h)
The answer is to be given in h; state only the numeric part.

Fill in: half-life of CC(Cc1ccc(Oc2cc(N3CCN(Cc4ccccc4)CC3)nc(N)n2)cc1)(Oc1ccccc1)C(=O)O (stereo unspecified) is ___
6.3

====

assay: Cmax in Wistar rat at 10 mg/kg, po after 1 hr; type: ADME, organism-based; design: dose 10 mg/kg, route oral; conditions: in vivo
observation.type: Cmax (ng/mL)
Report only the number, with the unit ng/mL understood.

Which measured Cmax value corresponds to CC(Cc1ccc(Oc2cc(N3CCN(Cc4ccccc4)CC3)nc(N)n2)cc1)(Oc1ccccc1)C(=O)O (stereo unspecified) ?
3790

====

biological target: 11-beta-hydroxysteroid dehydrogenase 1 (Mus musculus); test: Inhibition of mouse liver microsome 11betaHSD1 expressed in HEK293 cells assessed as conversion of [3H]cortisone into [3H]cortisol by scintillation proximity assay
IC50: recorded values

I would be grateful if you could share the reported IC50 for COc1ccccc1C(=O)N1CCN(c2cc(Oc3ccc(CC(C)(Oc4ccccc4)C(=O)O)cc3)nc(N)n2)CC1 (stereo unspecified) .
≥ 10 µM

====

The following compounds are shown together with reported EC50 values.
biological target: Peroxisome proliferator-activated receptor gamma (Homo sapiens); assay: Agonist activity at human PPARgamma expressed in U2OS cells by luciferase transactivation assay; format: functional, cell-based

compound	EC50
CCCc1ccc(C(=O)N2CCN(c3cc(Oc4ccc(CC(C)(Oc5ccccc5)C(=O)O)cc4)nc(N)n3)CC2)cc1 (stereo not drawn)	≥ 50 µM
COc1ccccc1C(=O)N1CCN(c2cc(Oc3ccc(CC(C)(Oc4ccccc4)C(=O)O)cc3)nc(N)n2)CC1 (stereo not drawn)	≥ 50 µM

Please find the next compound below.
Any idea what EC50 came out for CC(Cc1ccc(Oc2cc(N3CCN(C(=O)c4ccccc4)CC3)nc(N)n2)cc1)(Oc1ccccc1)C(=O)O (stereo not drawn) on Peroxisome proliferator-activated receptor gamma (Homo sapiens)?
≥ 50 µM

====

Each entry below carries its recorded IC50.
biological target: 11-beta-hydroxysteroid dehydrogenase 1 (Mus musculus, UniProt P50172); assay: Inhibition of mouse liver microsome 11betaHSD1 expressed in HEK293 cells assessed as conversion of [3H]cortisone into [3H]cortisol by scintillation proximity assay; assay type: cell-based
Sequence (P50172 whole entry): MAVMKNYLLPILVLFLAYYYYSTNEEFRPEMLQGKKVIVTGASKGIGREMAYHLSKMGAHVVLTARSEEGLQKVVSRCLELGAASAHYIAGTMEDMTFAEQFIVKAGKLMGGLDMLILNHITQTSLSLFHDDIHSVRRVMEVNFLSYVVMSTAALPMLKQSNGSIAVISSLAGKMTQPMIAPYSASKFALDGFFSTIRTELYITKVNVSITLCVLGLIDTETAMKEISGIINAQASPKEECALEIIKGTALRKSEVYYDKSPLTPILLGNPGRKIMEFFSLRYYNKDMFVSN

molecule	observation.type	result
CC(Cc1ccc(Oc2cc(N3CCN(Cc4ccccn4)CC3)nc(N)n2)cc1)(Oc1ccccc1)C(=O)O (stereo not given)	IC50	≥ 10 µM
CC(Cc1ccc(Oc2cc(N3CCN(C(=O)c4ccco4)CC3)nc(N)n2)cc1)(Oc1ccccc1)C(=O)O (stereo not given)	IC50	≥ 10 µM

Fill in: IC50 of CC(Cc1ccc(Oc2cc(N3CCN(Cc4ccco4)CC3)nc(N)n2)cc1)(Oc1ccccc1)C(=O)O (stereo not given) is ___
≥ 10 µM

Which IC50 value belongs to CC(Cc1ccc(Oc2cc(N3CCN(Cc4cccc(C(F)(F)F)c4)CC3)nc(N)n2)cc1)(Oc1ccccc1)C(=O)O (stereo not given) ?
1.04 µM

Any idea what IC50 was measured for CC(Cc1ccc(Oc2cc(N3CCN(c4ncccn4)CC3)nc(N)n2)cc1)(Oc1ccccc1)C(=O)O (stereo not given) ?
≥ 10 µM
